kinase still bound, per cent of control: recorded values
target-or-system: EPHB1 (human)
protocol-summary: KINOMEscan competition binding
condition-notes: compound 10.0 µM

// below: answered molecules
- COc1cc(C)c(Sc2cnc(NC(=O)c3ccc(CNC(C)C(C)C)cc3)s2)cc1C(=O)N1CCN(C(C)=O)CC1 (stereo not drawn): 24%
- O=c1[nH]c2ccccc2n1C1CCN(Cc2ccc(-c3nc4cc5[nH]cnc5cc4nc3-c3ccccc3)cc2)CC1: 100%
- COc1cc2c(Nc3ccc(NC(=O)c4ccccc4)cc3)ncnc2cc1OCCCN1CCOCC1: 100%
- COc1cc(N2CCC(C(N)=O)CC2)ccc1Nc1nc(N)c(Cl)c(Nc2ccccc2S(=O)(=O)C(C)C)n1: 100%
- CNC(=O)Nc1ccc(-c2nc(N3CC4CCC(C3)O4)c3cnn(C4CCC5(CC4)OCCO5)c3n2)cc1: 90%
- N#Cc1cc(-c2ccnc(Nc3ccc(-n4cnc(-c5cccnc5)n4)cc3)n2)cc(N2CCOCC2)c1: 90%
- C=CC(=O)Nc1ccc(C(=O)c2sc(Nc3ccc(N4CCN(C)CC4)cc3OC)nc2N)cc1: 98%

// switching to the query molecule
# query: kinase still bound, per cent of control of entry CCN1CCN(Cc2ccc(NC(=O)c3ccc(C)c(/C=C/c4cnc5[nH]ccc5c4OC)c3)cc2C(F)(F)F)CC1
0.45%

----------
target-or-system: BMPR2 (human) (UniProt Q13873)
Sequence (Q13873 whole entry, looked up): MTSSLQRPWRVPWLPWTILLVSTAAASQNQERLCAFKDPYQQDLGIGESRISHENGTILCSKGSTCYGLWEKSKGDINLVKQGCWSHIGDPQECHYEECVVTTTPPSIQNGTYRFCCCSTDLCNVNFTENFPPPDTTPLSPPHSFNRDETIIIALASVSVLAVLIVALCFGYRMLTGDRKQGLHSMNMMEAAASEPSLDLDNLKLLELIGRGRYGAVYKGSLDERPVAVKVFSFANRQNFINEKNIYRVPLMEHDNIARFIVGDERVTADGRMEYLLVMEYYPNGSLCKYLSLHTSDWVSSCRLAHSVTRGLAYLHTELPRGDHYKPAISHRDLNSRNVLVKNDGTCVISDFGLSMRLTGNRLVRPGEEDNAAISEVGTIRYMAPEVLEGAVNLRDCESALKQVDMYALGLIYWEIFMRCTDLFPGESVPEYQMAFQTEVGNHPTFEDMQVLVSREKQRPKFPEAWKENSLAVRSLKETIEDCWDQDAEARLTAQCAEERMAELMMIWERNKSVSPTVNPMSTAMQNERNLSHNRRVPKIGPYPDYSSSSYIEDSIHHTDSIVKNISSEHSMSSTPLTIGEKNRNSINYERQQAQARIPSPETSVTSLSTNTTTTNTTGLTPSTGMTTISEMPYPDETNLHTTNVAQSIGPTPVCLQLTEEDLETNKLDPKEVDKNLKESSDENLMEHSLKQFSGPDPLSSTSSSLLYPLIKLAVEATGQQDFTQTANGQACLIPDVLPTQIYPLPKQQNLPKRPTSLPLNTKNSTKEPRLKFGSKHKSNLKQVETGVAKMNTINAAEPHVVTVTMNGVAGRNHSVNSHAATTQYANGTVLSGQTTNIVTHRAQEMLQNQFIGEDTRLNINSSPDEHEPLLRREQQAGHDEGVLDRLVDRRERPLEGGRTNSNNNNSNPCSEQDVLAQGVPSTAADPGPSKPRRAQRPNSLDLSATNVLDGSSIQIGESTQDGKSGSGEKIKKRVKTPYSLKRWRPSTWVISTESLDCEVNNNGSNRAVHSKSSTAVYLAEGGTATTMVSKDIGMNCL
protocol-summary: KINOMEscan competition binding
condition-notes: compound 10.0 µM
kinase still bound, per cent of control: recorded values
Give the number; % is assumed, so skip it.

// below: answered compounds
• COc1cc2ncnc(Nc3cccc(Cl)c3)c2cc1OC = 100
• N#C/C(=C1/Nc2ccccc2S1)c1ccnc(NCCc2cccnc2)n1 = 88
• N#Cc1cc(-c2ccnc(Nc3ccc(-n4cnc(-c5cccnc5)n4)cc3)n2)cc(N2CCOCC2)c1 = 72

# query: kinase still bound, per cent of control of entry CC1=C(C(=O)Nc2cc3cn[nH]c3cc2F)C(c2ccc(C(F)(F)F)cc2)CC(=O)N1 (stereo unspecified)
97

----------
target-or-system: TLK2 (human) (UniProt Q86UE8)
Sequence (Q86UE8 whole entry, looked up): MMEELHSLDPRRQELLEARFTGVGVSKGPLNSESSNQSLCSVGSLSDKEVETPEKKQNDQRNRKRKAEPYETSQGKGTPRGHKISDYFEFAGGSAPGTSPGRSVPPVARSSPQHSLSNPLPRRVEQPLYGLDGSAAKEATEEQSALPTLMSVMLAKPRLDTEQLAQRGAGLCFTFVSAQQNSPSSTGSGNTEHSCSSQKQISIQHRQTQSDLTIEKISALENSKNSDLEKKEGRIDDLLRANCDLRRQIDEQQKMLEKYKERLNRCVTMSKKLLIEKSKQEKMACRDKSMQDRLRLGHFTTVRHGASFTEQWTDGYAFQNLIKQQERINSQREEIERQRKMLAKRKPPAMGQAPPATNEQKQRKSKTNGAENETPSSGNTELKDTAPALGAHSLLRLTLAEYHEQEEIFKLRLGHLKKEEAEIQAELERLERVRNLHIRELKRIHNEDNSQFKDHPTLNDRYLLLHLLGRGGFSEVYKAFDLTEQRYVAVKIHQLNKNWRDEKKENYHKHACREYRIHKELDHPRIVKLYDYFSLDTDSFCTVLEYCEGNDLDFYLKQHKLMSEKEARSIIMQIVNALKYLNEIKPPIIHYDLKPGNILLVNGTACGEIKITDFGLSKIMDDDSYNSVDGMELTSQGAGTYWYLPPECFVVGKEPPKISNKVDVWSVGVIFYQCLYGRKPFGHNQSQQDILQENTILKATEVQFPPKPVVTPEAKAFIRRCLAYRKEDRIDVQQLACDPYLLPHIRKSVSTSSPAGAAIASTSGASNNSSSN
protocol-summary: KINOMEscan competition binding
condition-notes: compound 10.0 µM
result-type: kinase still bound, per cent of control (%)
Give the number; % is assumed, so skip it.

• CC(=O)c1c(C)c2cnc(Nc3ccc(N4CCNCC4)cn3)nc2n(C2CCCC2)c1=O = 89
• CNC(=O)Nc1ccc(-c2nc(N3CC4CCC(C3)O4)c3cnn(C4CCC5(CC4)OCCO5)c3n2)cc1 = 100
• Cc1cn(-c2cc(C(=O)Nc3ccc(C)c(NC(=O)c4ccno4)c3)cc(C(F)(F)F)c2)cn1 = 100
• COc1cc(N2CCC(C(N)=O)CC2)ccc1Nc1nc(N)c(Cl)c(Nc2ccccc2S(=O)(=O)C(C)C)n1 = 100
• COc1cc(C)c(Sc2cnc(NC(=O)c3ccc(CNC(C)C(C)C)cc3)s2)cc1C(=O)N1CCN(C(C)=O)CC1 (stereo not drawn) = 100
• COc1ccc(N(C(=O)Oc2cc(C(=O)Nc3cccc(C(F)(F)F)c3)ccc2C)c2ccnc(Nc3ccc(N4CCN(C)CC4)cc3)n2)c(OC)c1 = 100
• CCN(CCO)CCCOc1ccc2c(Nc3cc(CC(=O)Nc4cccc(F)c4)[nH]n3)ncnc2c1 = 100

// switching to the query compound
# query: kinase still bound, per cent of control of entry CCc1nc(-c2cccc(C)c2)c(-c2ccnc(NC(=O)c3ccccc3)c2)s1
87
